Where do the numbers come from? From patent US20020058247A1.

Each entry below lists one item and its recorded OD at 490 nm value.
- experimental target: T1, Full length recombinant HBcAg (rHBcAg) encompassing residues 1-183 (hepatitis B virus, UniProt P03146 1-183)
- T1 construct: range 1-183; also called hepatitis B virus core antigen
- T1 sequence (P03146 whole entry, the tested form may be a part): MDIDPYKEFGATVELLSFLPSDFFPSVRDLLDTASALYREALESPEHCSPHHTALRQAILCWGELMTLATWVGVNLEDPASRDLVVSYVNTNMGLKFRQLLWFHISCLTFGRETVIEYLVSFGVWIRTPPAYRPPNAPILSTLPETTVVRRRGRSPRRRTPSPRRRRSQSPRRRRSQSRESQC
- assay text: competition EIA, HBcAg coated 1 ug/ml, peptide 12.5 ug/ml before mAb 4-2 (competitor); OD of bound mAb

Recorded OD at 490 nm, per entry:
# binder, observed measurement
measured = [
    ("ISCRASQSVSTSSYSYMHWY [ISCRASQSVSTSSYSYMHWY (SEQ. ID. No. 17)]", "0.38 OD"),
    ("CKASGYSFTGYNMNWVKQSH (also called Peptide # 26) [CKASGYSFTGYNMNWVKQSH (SEQ. ID. No. 29)]", "0.357 OD"),
    ("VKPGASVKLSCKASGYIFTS (also called Peptide # 2; Pept. #2) [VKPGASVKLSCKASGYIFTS (SEQ. ID. No. 5)]", "0.331 OD"),
]

Asked: Supply recorded OD at 490 nm for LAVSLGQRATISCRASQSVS [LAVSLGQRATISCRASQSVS (SEQ. ID. No. 16)] here.
Given back: 0.365 OD

Asked: Report measured OD at 490 nm; entry is QQKPGQPPKLLIKYASNLES [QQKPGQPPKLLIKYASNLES (SEQ. ID. No. 19)]
Given back: 0.391 OD

Asked: Write down OD at 490 nm measured for item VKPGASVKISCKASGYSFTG (also called Peptide # 25) [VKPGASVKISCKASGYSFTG (SEQ. ID. No. 28)]
Given back: 0.339 OD
